measured_on: T1, biotinylated goat anti-human kappa light chain
T1 construct: positive control of the ELISA
test_details: ELISA, positive control; further: test concentration or dose not given here
In this section we review reported optical density values for a set of binders.
Give the quantity in OD, number only.

Known optical density results, listed for orientation:
371_D02 (antibody, V domains shown, Group III) VH: EVQLLESGGGLVQPGGSLRLSCAASGFTFDDYSMNWVRQAPGKGLEWVAGINYNGGYKSYADSVKGRFTISRDNSKNTLYLQMNSLRAEDTAVYYCARGANWHDTALDYWGQGTLVTVSS VL: DIQMTQSPSSLSASVGDRVTITCRASQSIVTYLNWYQQKPGKAPKLLIYAATSRASGVPSRFSGSGSGTDFTLTISSLQPEDFATYYCQQSYDSPLTFGGGTKVEIK | 3.58
369_D03 (antibody, V domains shown, Group III) VH: EVQLLESGGGLVQPGGSLRLSCAASGFTFSSYSMNWVRQAPGKGLEWVSGINYNGGYTSYADSVKGRFTISRDNSKNTLYLQMNSLRAEDTAVYYCARGANWHDTHLDYWGQGTLVTVSS VL: DIQMTQSPSSLSASVGDRVTITCRASQSILTYLNWYQQKPGKAPKLVIYAATSRASGVPSRFSGSGSGTDFTLTISSLQPEDFATYYCQQSYENPLTFGGGTKVEIK | 3.61

Ask | Identify measured optical density associated with 373_B05 (antibody, V domains shown, Group III) VH: EVQLLESGGGLVQPGGSLRLSCAASGFTFSDYSMNWVRQAPGKGLEWVSNINYNGGYKSYADSVKGRFTISRDNSKNTLYLQMNSLRAEDTAVYYCARGANWHDTALDYWGQGTLVTVSS VL: DIQMTQSPSSLSASVGDRVTITCRASQSIVTYLNWYQQKPGKAPKLVIYAATSRASGVPSRFSGSGSGTDFTLTISSLQPEDFATYYCQQSYSNPLTFGGGTKVEIK
Reply | 3.23

Ask | Give the measured optical density for 374_D05 (antibody, V domains shown, Group III) VH: EVQLLESGGGLVQPGGSLRLSCAASGFTFDSYSMNWVRQAPGKGLEWVSGINYNSGYTGYADSVKGRFTISRDNSKNTLYLQMNSLRAEDTAVYYCARGANWHDTHLDYWGQGTLVTVSS VL: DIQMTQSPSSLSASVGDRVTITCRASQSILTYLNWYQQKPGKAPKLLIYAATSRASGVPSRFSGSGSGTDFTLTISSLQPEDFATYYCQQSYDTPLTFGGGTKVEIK
Reply | 3.15

Ask | Please supply the value of reported optical density for the item 367_B04 (antibody, V domains shown, Group III) VH: EVQLLESGGGLVQPGGSLRLSCAASGFTFDSYSMNWVRQAPGKGLEWVSGINYNSGYKSYADSVKGRFTISRDNSKNTLYLQMNSLRAEDTAVYYCARGANWHDTHLDYWGQGTLVTVSS VL: DIQMTQSPSSLSASVGDRVTITCRASQSILSYLNWYQQKPGKAPKLLIYAATSRASGVPSRFSGSGSGTDFTLTISSLQPEDFATYYCQQSYELPLTFGGGTKVEIK
Reply | 3.34

Ask | State, in one line, measured optical density of 374_B03 (antibody, V domains shown, Group III) VH: EVQLLESGGGLVQPGGSLRLSCAASGFTFDSYSMNWVRQAPGKGLEWVSGINYNGGYTSYADSVKGRFTISRDNSKNTLYLQMNSLRAEDTAVYYCARGANWHDTALDYWGQGTLVTVSS VL: DIQMTQSPSSLSASVGDRVTITCRASQSILTYLNWYQQKPGKAPKLVIYAATSRASGVPSRFSGSGSGTDFTLTISSLQPEDFATYYCQQSYDSPLTFGGGTKVEIK
Reply | 3.07
